Counter-ions that a name gives are not always drawn.
As an illustration, consider measured pIC50 for compounds on human GnRH receptor (Homo sapiens).
Sequence (P30968 whole entry): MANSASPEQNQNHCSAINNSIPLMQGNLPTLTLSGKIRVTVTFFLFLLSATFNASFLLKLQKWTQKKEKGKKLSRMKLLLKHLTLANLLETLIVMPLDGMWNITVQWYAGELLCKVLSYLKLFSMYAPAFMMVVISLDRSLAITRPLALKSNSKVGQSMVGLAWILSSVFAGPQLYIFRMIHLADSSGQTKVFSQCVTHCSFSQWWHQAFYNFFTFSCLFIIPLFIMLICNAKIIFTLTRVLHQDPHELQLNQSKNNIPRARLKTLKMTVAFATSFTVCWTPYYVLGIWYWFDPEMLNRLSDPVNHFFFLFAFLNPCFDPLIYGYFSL
pIC50 is defined as minus the log10 of a concentration measured in mol/L.

Report pIC50 for CC(C)Oc1cn(Cc2c(F)cccc2F)c2sc(-c3ccc(NC(=O)C(C)C)cc3)c(CN(C)Cc3ccccc3)c2c1=O please.
9.00

Item under review: CCOC(=O)COc1cn(Cc2c(F)cccc2F)c2sc(-c3ccc(NC(=O)C(C)C)cc3)c(CN(C)Cc3ccccc3)c2c1=O . Reported pIC50?
8.52

Consider the compound CC(C)C(=O)Nc1ccc(-c2sc3c(c2CN(C)Cc2ccccc2)c(=O)c(OS(=O)(=O)C(C)C)cn3Cc2c(F)cccc2F)cc1 [Example 10, hydrochloride] and give its measured pIC50.
9.52

Quick check: pIC50 of CC(C)C(=O)Nc1ccc(-c2sc3c(c2CN(C)Cc2ccccc2)c(=O)c(OC(=O)C(C)C)cn3Cc2c(F)cccc2F)cc1 [Example 11, hydrochloride] ?
8.70
